Test: Biodistribution in BxPC3-luc tumor-bearing mice
Assay type: in vivo, BALB/c nu/nu mice
Conditions: female, BALB/c nu/nu, mouse, blood, iv, 74 kBq, total radioactivity; 1 h post-injection, i.v.; read-out: Biodistribution, Blood
Where a SMILES comes first, the peptide text is derived from it. The star is where a group is joined. DOTA = O=C(O)CN1CCN(CC(=O)O)CCN(CC(=O)*)CCN(CC(=O)O)CC1; AEEA = NCCOCCOCC(=O)O
readoutKind: tissue uptake at 1 h (%ID/g)
// note: answer is a bare numeric in %ID/g

Field tissue uptake at 1 h (entry CC[C@H](C)[C@H](NC(=O)COCCOCCNC(=O)CN1CCN(CC(=O)O)CCN(CC(=O)O)CCN(CC(=O)O)CC1)C(=O)N1CCC[C@H]1C(=O)N[C@@H](CC(C)C)C(=O)N1CCC[C@H]1C(=O)N1CCC[C@H]1C(=O)N1CCC[C@H]1C(=O)N[C@@H](CCCNC(=N)N)C(=O)N[C@@H](CCCNC(=N)N)C(=O)N1CCC[C@H]1C(=O)N[C@@H](Cc1ccccc1)C(=O)N[C@@H](Cc1ccccc1)C(=O)N[C@@H](CCCCN)C(=O)O [[^67Ga]27, [^67Ga]Ga-DOTA-EG2-IPLPPPRRPFFK, metal not drawn] ({DOTA-AEEA}-IPLPPPRRPFFK-OH) ) reads 0.15

* * *

Experiment: Biodistribution in BxPC3-luc tumor-bearing mice
Type: in vivo, BALB/c nu/nu mice
Settings: female, BALB/c nu/nu, muscle, iv, total radioactivity; 1 h, blocking: co-injection of IPLPPPRRPFFK 1 mg/mouse; read-out: Biodistribution, Muscle
Where a SMILES comes first, the peptide text is derived from it. The star is where a group is joined. DOTA = O=C(O)CN1CCN(CC(=O)O)CCN(CC(=O)*)CCN(CC(=O)O)CC1; AEEA = NCCOCCOCC(=O)O
readoutKind: tissue uptake at 1 h (%ID/g)
// note: answer is a bare numeric in %ID/g

Field tissue uptake at 1 h (entry CC[C@H](C)[C@H](NC(=O)COCCOCCNC(=O)CN1CCN(CC(=O)O)CCN(CC(=O)O)CCN(CC(=O)O)CC1)C(=O)N1CCC[C@H]1C(=O)N[C@@H](CC(C)C)C(=O)N1CCC[C@H]1C(=O)N1CCC[C@H]1C(=O)N1CCC[C@H]1C(=O)N[C@@H](CCCNC(=N)N)C(=O)N[C@@H](CCCNC(=N)N)C(=O)N1CCC[C@H]1C(=O)N[C@@H](Cc1ccccc1)C(=O)N[C@@H](Cc1ccccc1)C(=O)N[C@@H](CCCCN)C(=O)O [[^67Ga]27, [^67Ga]Ga-DOTA-EG2-IPLPPPRRPFFK, metal not drawn] ({DOTA-AEEA}-IPLPPPRRPFFK-OH) ) reads 0.22

* * *

Test: physchem
Settings: pH 7.4
Where a SMILES comes first, the peptide text is derived from it. The star is where a group is joined. DOTA = O=C(O)CN1CCN(CC(=O)O)CCN(CC(=O)*)CCN(CC(=O)O)CC1
readoutKind: logP

Field logP (entry CC[C@H](C)[C@H](NC(=O)CN1CCN(CC(=O)O)CCN(CC(=O)O)CCN(CC(=O)O)CC1)C(=O)N1CCC[C@H]1C(=O)N[C@@H](CC(C)C)C(=O)N1CCC[C@H]1C(=O)N1CCC[C@H]1C(=O)N1CCC[C@H]1C(=O)N[C@@H](CCCNC(=N)N)C(=O)N[C@@H](CCCNC(=N)N)C(=O)N1CCC[C@H]1C(=O)N[C@@H](Cc1ccccc1)C(=O)N[C@@H](Cc1ccccc1)C(=O)N[C@@H](CCCCN)C(=O)O [[^67Ga]22, [^67Ga]Ga-DOTA-IPLPPPRRPFFK, metal not drawn] ({DOTA}-IPLPPPRRPFFK-OH) ) reads < -4
